# System name: Human FXR full length (Homo sapiens, UniProt Q96RI1)
# Construct: Human FXR full length and RXR full length was obtained from Ronald Evans' laboratory; expressed in transfected cells; host or cells: CV-1 cells
# Sequence (Q96RI1 1-476 isoform Q96RI1-1): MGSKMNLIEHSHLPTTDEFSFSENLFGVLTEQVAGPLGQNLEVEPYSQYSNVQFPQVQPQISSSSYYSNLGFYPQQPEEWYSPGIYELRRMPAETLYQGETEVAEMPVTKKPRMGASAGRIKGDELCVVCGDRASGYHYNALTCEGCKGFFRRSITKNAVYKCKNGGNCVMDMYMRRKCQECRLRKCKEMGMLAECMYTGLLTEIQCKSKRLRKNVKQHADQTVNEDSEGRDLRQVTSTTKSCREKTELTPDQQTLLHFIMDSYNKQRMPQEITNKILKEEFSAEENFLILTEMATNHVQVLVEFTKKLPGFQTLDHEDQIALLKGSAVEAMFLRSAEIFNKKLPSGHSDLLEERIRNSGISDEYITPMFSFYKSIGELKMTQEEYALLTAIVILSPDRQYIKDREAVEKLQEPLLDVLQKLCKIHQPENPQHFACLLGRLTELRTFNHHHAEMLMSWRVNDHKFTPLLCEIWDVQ
# Sequence (P19793 1-462 partner): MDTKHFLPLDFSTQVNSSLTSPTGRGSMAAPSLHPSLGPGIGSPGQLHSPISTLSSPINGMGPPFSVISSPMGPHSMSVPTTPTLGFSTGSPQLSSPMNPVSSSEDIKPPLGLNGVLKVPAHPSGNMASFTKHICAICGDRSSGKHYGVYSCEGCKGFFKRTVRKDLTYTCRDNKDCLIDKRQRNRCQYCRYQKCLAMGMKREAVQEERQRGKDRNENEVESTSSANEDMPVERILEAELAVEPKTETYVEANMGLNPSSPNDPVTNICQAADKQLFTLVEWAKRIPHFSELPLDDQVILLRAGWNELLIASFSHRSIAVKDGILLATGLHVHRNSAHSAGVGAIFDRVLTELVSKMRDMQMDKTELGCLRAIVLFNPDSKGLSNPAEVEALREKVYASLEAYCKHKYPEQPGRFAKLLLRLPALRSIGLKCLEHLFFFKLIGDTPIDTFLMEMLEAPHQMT
# Protocol details: FXR activity screen, luciferase reporter in transfected CV-1 cells
# Assay type: cell-based
# Assay context: first round; CV-1 cells, 24 hours; read-out: 1st RND EC50
pEC50: −log10 of the molar value.
// Not met strictly below 6 in pEC50; Met otherwise

INSERT INTO measurements (compound, cat) VALUES
  ('COC(=O)/C=C/c1cncc(N(Cc2cccc3cc4cnn(C)c4c(Cl)c23)C(=O)C2CCCCC2)c1 [NSSK00009]', 'Not met'),
  ('[2H]C(c1ccc(-c2ccc(N(C)C)cc2)cc1F)N(C(=O)C1CCCCC1)c1cc(F)cc(/C=C/C(=O)OC)c1 (stereo not shown) [NSSK00109]', 'Met'),
  ('[2H]C(c1ccc(-c2ccc3c(cnn3C)c2)cc1Cl)N(C(=O)[C@@H]1C[C@@H]2CC[C@H]1C2)c1cccc(/C=C/C(=O)OC)c1 (stereo partly shown) [NSSK00013]', 'Met'),
  ('[2H]C(c1ccc(-c2ccc3c(cnn3C)c2)cc1F)N(C(=O)C1CCCCC1)c1cccc(/C=C/C(=O)OC)c1 (stereo not shown) [NSSK00089]', 'Met'),
  ('[2H]C(c1ccc(-c2ccc3c(cnn3C)c2)cc1F)N(C(=O)c1ccccc1)c1cc(F)cc(/C=C/C(=O)OC)c1 (stereo not shown) [NSSK00039]', 'Not met'),
  ('COC(=O)/C=C/c1cncc(N(Cc2ccc(-c3ccc(N(C)C)cc3)cc2Cl)C(=O)[C@@H]2C[C@@H]3CC[C@H]2C3)c1 [NSSK00082]', 'Not met'),
  ('COC(=O)/C=C/c1cncc(N(Cc2ccc(-c3ccc4c(cnn4C)c3)cc2F)C(=O)c2ccccc2)c1 [NSSK00061]', 'Not met'),
  ('COC(=O)/C=C/c1cc(F)cc(N(Cc2ccc(-c3ccc4c(cnn4C)c3)cc2)C(=O)C2CCCCC2)c1 [NSSK00084]', 'Not met'),
  ('[2H]C(c1ccc(-c2ccc3c(cnn3C)c2)cc1)N(C(=O)C1CCCCC1)c1cncc(/C=C/C(=O)OC)c1 (stereo not shown) [NSSK00034]', 'Not met');
